Test system: anti-GBM nephritic mice
Test: anti-GBM nephritic mice: proteinuria, serum cholesterol, blood urea nitrogen and serum creatinine;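 note: minus not effective plus trend double p<0.05 triple p<0.01 quadruple p<0.001 improvement vs control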
Type: in vivo, BALB/c mice
Conditions: 11th day; oral
Recorded Metric: Serum Parameter BUN (blood urea nitrogen)

Consider the worked cases shown below.
[
  {
    "Compound": "COc1cccc(CCNC(=O)/C=C/c2cccnc2)c1 [Compound 41]",
    "Data Value": "-"
  },
  {
    "Compound": "NC(=O)COc1cccc(CCNC(=O)/C=C/c2cccnc2)c1 [Compound 115]",
    "Data Value": "++"
  },
  {
    "Compound": "CN(CCc1ccc(O)cc1)C(=O)/C=C/c1cccnc1 [Compound 87]",
    "Data Value": "+++"
  },
  {
    "Compound": "COc1ccc(O)c(CCNC(=O)/C=C/c2cccnc2)c1 [Compound 50]",
    "Data Value": "-"
  },
  {
    "Compound": "CCOC(=O)COc1cccc(C(=O)CNC(=O)/C=C/c2cccnc2)c1 [Compound 161]",
    "Data Value": "-"
  }
]

Need Serum Parameter BUN (blood urea nitrogen) for each of these compounds.
1. COc1ccc(OC)c(CCNC(=O)/C=C/c2cccnc2)c1 [Compound 39]
2. COc1cc(CCN(C)C(=O)/C=C/c2cccnc2)ccc1O [Compound 73]

1. ++
2. +

Need Serum Parameter BUN (blood urea nitrogen) for each of these compounds.
1. COc1ccc(C(=O)CN(C)C(=S)/C=C/c2cccnc2)cc1OC [Compound 165]
2. CCN(CCc1ccc(OC)c(OC)c1)C(=O)/C=C/c1cccnc1 [Compound 12]

1. +
2. +

Need Serum Parameter BUN (blood urea nitrogen) for each of these compounds.
1. CN(CCc1ccc(Cl)c(Cl)c1)C(=O)/C=C/c1cccnc1 [Compound 25]
2. COc1ccc(CCN(C)C(=O)/C=C/c2cccnc2)c(OC)c1 [Compound 14]
3. COc1cc(CCN(C)C(=O)/C=C/c2cccnc2)cc(OC)c1 [Compound 18]
4. O=C(/C=C/c1cccnc1)NCCc1ccccc1O [Compound 38]
5. O=C(/C=C/c1cccnc1)NCc1cccc(O)c1 [Compound 90]
6. CSc1ccc(CCN(C)C(=O)/C=C/c2cccnc2)cc1 [Compound 53]

+
+
++
+
+
-

###

Test system: anti-GBM nephritic mice
Assay: anti-GBM nephritic mice: proteinuria, serum cholesterol, blood urea nitrogen and serum creatinine;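 note: minus not effective plus trend double p<0.05 triple p<0.01 quadruple p<0.001 improvement vs control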
Format: in vivo, BALB/c mice
Settings: 11th day; oral
Where a name gives a salt, the structure may show the parent alone.
Recorded Metric: Serum Parameter BUN (blood urea nitrogen)

Consider the worked cases shown below.
[
  {
    "Compound": "COc1ccc(CCN(C)C(=S)/C=C/c2cccnc2)cc1OC [Compound 135, hydrochloride]",
    "Tested On": "anti-GBM nephritic mice",
    "Data Value": "+"
  },
  {
    "Compound": "CCOC(=O)COc1ccc(CCNC(=O)/C=C/c2cccnc2)cc1 [Compound 101]",
    "Tested On": "anti-GBM nephritic mice",
    "Data Value": "-"
  },
  {
    "Compound": "CN(CCc1ccc(-c2ccccc2)cc1)C(=O)/C=C/c1cccnc1 [Compound 52]",
    "Tested On": "anti-GBM nephritic mice",
    "Data Value": "+"
  },
  {
    "Compound": "O=C(/C=C/c1cccnc1)NCCc1ccccc1O [Compound 70]",
    "Tested On": "anti-GBM nephritic mice",
    "Data Value": "++"
  },
  {
    "Compound": "CCNC(=O)Oc1ccc(CCN(C)C(=O)/C=C/c2cccnc2)cc1OC(=O)NCC [Compound 133]",
    "Tested On": "anti-GBM nephritic mice",
    "Data Value": "+"
  }
]

Need Serum Parameter BUN (blood urea nitrogen) for each of these compounds.
1. COc1ccc(CCN(C)C(=O)/C=C/c2cccnc2)cc1 [Compound 49]
2. CNC(=O)COc1cccc(CCNC(=O)/C=C/c2cccnc2)c1 [Compound 114]
3. COc1ccc(C(=O)CN(C)C(=O)/C=C/c2cccnc2)cc1OC [Compound 155]
4. CCOC(=O)COc1cccc(CCNC(=O)/C=C/c2cccnc2)c1 [Compound 100]
5. COc1cc(CCN(C)C(=O)/C=C/c2cccnc2)cc(OC)c1OC.Cl [Compound 9]
6. O=C(/C=C/c1cccnc1)NCCc1cccc(O)c1 [Compound 75]
7. O=C(/C=C/c1cccnc1)NCCc1ccc(O)cc1 [Compound 71]
8. O=C(/C=C(/c1ccccc1)c1cccnc1)NCCc1cccc(O)c1 [Compound 93]

["+", "++", "+", "+", "+", "+", "++", "+++"]

Lab note: need Serum Parameter BUN (blood urea nitrogen) with anti-GBM nephritic mice for entry COc1ccc(CCNC(=O)/C=C/c2cccnc2)cc1OC [Compound 55] , please look it up.
++
